- Protocol Summary: Growth inhibition of human A375-C5 cells after 48 hrs by sulforhodamine B assay
- Type: functional
- Applied Conditions: A375-C5, 48 h
Measurement Kind: log10 of GI50 (log10 of the value in µM)
Each number you see is log10 of GI50, and the unit inside the log is µM.

Mol	log10 of GI50
COc1c2c(cc3c(=O)c4ccc(O)cc4oc13)OC(C)(C)C=C2	1.43
COc1cccc2c1C(=O)c1c(O)c3c(c(O)c1C2=O)C[C@@](O)(C(=O)CO)C[C@@H]3O[C@H]1C[C@H](N)[C@H](O)[C@H](C)O1	-0.84
CCN(CC)c1ccc2c(=O)c3cc4c(c(OC)c3oc2c1)CCC(C)(C)O4	1.29

Request: # query: log10 of GI50 of entry "COc1c2c(cc3c(=O)c4cc(C)ccc4oc13)CCC(C)(C)O2"
Response: 1.47

Request: Entry "CC1(C)CCc2cc3c(=O)c4ccccc4oc3c(O)c2O1" please
Response: 1.46

====

Recorded log K, one value per entry.
- Protocol Summary: Liposomes-buffer partition coefficient, log K of the compound after 30 mins at pH 7.4 by UV-vis spectrophotometric analysis
- Type: physicochemical
- Applied Conditions: artificial membrane, pH 7.4, 0.5 h
Form rule: numeric answer, no unit written next to it.

Mol	log K
COc1c2c(cc3c(=O)c4ccccc4oc13)CCC(C)(C)O2	3.6

Request: # query: log K of entry "COc1ccc2oc3c(O)c4c(cc3c(=O)c2c1)CCC(C)(C)O4"
Response: 3.25

Request: Entry "COc1c2c(cc3c(=O)c4cc(C)ccc4oc13)OC(C)(C)C=C2" please
Response: 4.32

Request: Entry "COc1c2c(cc3c(=O)c4ccc(O)cc4oc13)CCC(C)(C)O2" please
Response: 3.43

Request: Entry "Cc1ccc2oc3c(O)c4c(cc3c(=O)c2c1)CCC(C)(C)O4" please
Response: 3.86

Request: Entry "COc1c2c(cc3c(=O)c4cc(Cl)ccc4oc13)OC(C)(C)CC2" please
Response: 4.48

====

Recorded log K, one value per entry.
- Protocol Summary: Liposomes-buffer partition coefficient, log K of the compound after 30 mins at pH 7.4 by UV-vis spectrophotometric analysis
- Type: physicochemical
- Applied Conditions: artificial membrane, pH 7.4, 0.5 h
Form rule: numeric answer, no unit written next to it.

Sample answers from the record:
Mol	log K
CC1(C)CCc2cc3c(=O)c4ccccc4oc3c(O)c2O1	3.35
COc1cccc2c(=O)c3cc4c(c(O)c3oc12)OC(C)(C)CC4	3.53
CC1(C)CCc2cc3c(=O)c4ccc(O)cc4oc3c(O)c2O1	3.32
CCN(CC)c1ccc2c(=O)c3cc4c(c(OC)c3oc2c1)CCC(C)(C)O4	4.62
COc1cc2oc3c(OC)c4c(cc3c(=O)c2cc1OC)OC(C)(C)CC4	3.88

// next entry
Request: # query: log K of entry "COc1c2c(cc3c(=O)c4cc(C)ccc4oc13)CCC(C)(C)O2"
Response: 4.02

====

Recorded GI50, one value per entry.
- Tested on: HL-60
- Protocol Summary: Growth inhibition of human HL60 cells after 48 hrs by sulforhodamine B assay
- Type: functional
- Applied Conditions: HL-60, 48 h
Give just the number in µM; leave the unit off.

Mol	Tested On	Units	GI50
COc1c2c(cc3c(=O)c4cc(C)ccc4oc13)CCC(C)(C)O2	HL-60	µM	5.14
COc1c2c(cc3c(=O)c4ccc(O)cc4oc13)CCC(C)(C)O2	HL-60	µM	8.3
COc1c2c(cc3c(=O)c4ccccc4oc13)CCC(C)(C)O2	HL-60	µM	8.8
COc1c2c(cc3c(=O)c4cc(Cl)ccc4oc13)OC(C)(C)C=C2	HL-60	µM	14.1

Request: // map "COc1ccc2oc3c(O)c4c(cc3c(=O)c2c1)CCC(C)(C)O4" to recorded GI50 (system: HL-60)
Response: 23.9

Request: Entry "Cc1ccc2oc3c(O)c4c(cc3c(=O)c2c1)CCC(C)(C)O4" please
Response: 12.5

Request: Entry "CC1(C)CCc2cc3c(=O)c4ccc(O)cc4oc3c(O)c2O1" please
Response: 57

====

- Tested on: MCF7
- Protocol Summary: Growth inhibition of human MCF7 cells after 48 hrs by sulforhodamine B assay
- Format: functional
- Applied Conditions: MCF7, 48 h
Measurement Kind: GI50 (µM)
Give just the number in µM; leave the unit off.

Mol	Units	GI50
CC1(C)CCc2cc3c(=O)c4ccc(O)cc4oc3c(O)c2O1	µM	82.5

Request: # query: GI50 of entry "CCN(CC)c1ccc2c(=O)c3cc4c(c(OC)c3oc2c1)CCC(C)(C)O4"
Response: 14.5

====

- Protocol Summary: Thermodynamic solubility of the compound after 24 hrs at pH 7.4 by spectrophotometric analysis
- Type: physicochemical
- Applied Conditions: buffer, read-out: Therm_solubility
Measurement Kind: solubility thermodynamic at 24 h

Sample answers from the record:
Mol	Measurement Kind	Recorded Value
CC1(C)CCc2cc3c(=O)c4cc(Cl)ccc4oc3c(O)c2O1	solubility thermodynamic at 24 h	< 0.1 µM
COc1ccc2oc3c(O)c4c(cc3c(=O)c2c1)CCC(C)(C)O4	solubility thermodynamic at 24 h	< 0.1 µM

Request: # query: solubility thermodynamic at 24 h of entry "Cc1ccc2oc3c(O)c4c(cc3c(=O)c2c1)CCC(C)(C)O4"
Response: < 0.1 µM

====

- Protocol Summary: Growth inhibition of human A375-C5 cells after 48 hrs by sulforhodamine B assay
- Type: functional
- Applied Conditions: A375-C5, 48 h
Measurement Kind: GI50

Sample answers from the record:
Mol	GI50
COc1c2c(cc3c(=O)c4cc(Cl)ccc4oc13)OC(C)(C)C=C2	> 150 µM
COc1c2c(cc3c(=O)c4cc(C)ccc4oc13)OC(C)(C)C=C2	> 50 µM
COc1ccc2oc3c(O)c4c(cc3c(=O)c2c1)CCC(C)(C)O4	> 150 µM

Request: # query: GI50 of entry "COc1cc2oc3c(OC)c4c(cc3c(=O)c2cc1OC)CCC(C)(C)O4"
Response: > 100 µM

Request: Entry "CC1(C)CCc2cc3c(=O)c4cc(Cl)ccc4oc3c(O)c2O1" please
Response: > 150 µM

====

Recorded GI50, one value per entry.
- Protocol Summary: Growth inhibition of human A375-C5 cells after 48 hrs by sulforhodamine B assay
- Assay type: functional
- Applied Conditions: A375-C5, 48 h

Sample answers from the record:
Mol	Recorded Value
COc1ccc2oc3c(OC)c4c(cc3c(=O)c2c1)OC(C)(C)C=C4	> 150 µM
COc1c2c(cc3c(=O)c4ccccc4oc13)CCC(C)(C)O2	> 150 µM
COc1c2c(cc3c(=O)c4cc(Cl)ccc4oc13)OC(C)(C)CC2	> 75 µM
COc1cc2oc3c(OC)c4c(cc3c(=O)c2cc1OC)OC(C)(C)CC4	> 75 µM

// next entry
Request: # query: GI50 of entry "COc1c2c(cc3c(=O)c4ccc(O)cc4oc13)CCC(C)(C)O2"
Response: > 150 µM

====

- Test system: HL-60
- Protocol Summary: Growth inhibition of human HL60 cells after 48 hrs by sulforhodamine B assay
- Assay type: functional
- Applied Conditions: HL-60, 48 h
Measurement Kind: GI50 (µM)
Give just the number in µM; leave the unit off.

Sample answers from the record:
Mol	Units	GI50
CC1(C)CCc2cc3c(=O)c4ccccc4oc3c(O)c2O1	µM	23.4
CCN(CC)c1ccc2c(=O)c3cc4c(c(OC)c3oc2c1)CCC(C)(C)O4	µM	14.4
COc1c2c(cc3c(=O)c4cc(Cl)ccc4oc13)OC(C)(C)CC2	µM	48.4
CCN(CC)c1ccc2c(=O)c3cc4c(c(OC)c3oc2c1)C=CC(C)(C)O4	µM	9.2
COc1cccc2c1C(=O)c1c(O)c3c(c(O)c1C2=O)C[C@@](O)(C(=O)CO)C[C@@H]3O[C@H]1C[C@H](N)[C@H](O)[C@H](C)O1	µM	0.028
COc1cccc2c(=O)c3cc4c(c(O)c3oc12)OC(C)(C)CC4	µM	27.3

Request: # query: GI50 of entry "CC1(C)CCc2cc3c(=O)c4cc(Cl)ccc4oc3c(O)c2O1"
Response: 9

Request: Entry "COc1c2c(cc3c(=O)c4ccc(O)cc4oc13)OC(C)(C)C=C2" please
Response: 18.8

Request: Entry "COc1cc2oc3c(OC)c4c(cc3c(=O)c2cc1OC)CCC(C)(C)O4" please
Response: 72.3

====

- Tested on: MCF7
- Protocol Summary: Growth inhibition of human MCF7 cells after 48 hrs by sulforhodamine B assay
- Assay type: functional
- Applied Conditions: MCF7, 48 h
Recorded GI50, one value per entry.

Sample answers from the record:
Mol	GI50
COc1ccc2oc3c(O)c4c(cc3c(=O)c2c1)CCC(C)(C)O4	> 150 µM
COc1c2c(cc3c(=O)c4cc(C)ccc4oc13)OC(C)(C)C=C2	> 50 µM

// next entry
Request: # query: GI50 of entry "COc1ccc2oc3c(OC)c4c(cc3c(=O)c2c1)OC(C)(C)C=C4"
Response: > 150 µM
